Source listed as ChEMBL document CHEMBL4007424.

- tested-on: Kappa-type opioid receptor (Homo sapiens)
- Sequence (P41145 whole entry): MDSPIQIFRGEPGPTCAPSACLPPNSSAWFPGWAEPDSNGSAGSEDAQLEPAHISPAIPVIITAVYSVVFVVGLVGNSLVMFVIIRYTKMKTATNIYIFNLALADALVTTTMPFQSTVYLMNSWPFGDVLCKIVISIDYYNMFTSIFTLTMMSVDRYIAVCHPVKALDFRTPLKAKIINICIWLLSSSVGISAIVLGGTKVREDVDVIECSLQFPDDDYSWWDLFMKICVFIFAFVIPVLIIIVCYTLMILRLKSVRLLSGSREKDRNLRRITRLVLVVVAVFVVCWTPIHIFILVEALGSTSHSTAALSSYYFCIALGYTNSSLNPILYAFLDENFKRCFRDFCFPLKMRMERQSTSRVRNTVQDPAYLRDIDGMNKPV
- method-summary: Agonist activity at recombinant human kappa-type opioid receptor expressed in HEK293 cells after 30 mins by [35S]GTPgammaS binding assay
- Type: functional, cell-based
Entries annotated with measured EC50
Return type: number; implicit unit nM.

Worked cases, EC50 given:
| compound-smiles | readout-unit | EC50 |
| --- | --- | --- |
| CS(=O)(=O)N1CCN(C(=O)Cc2ccc(Cl)c(Cl)c2)[C@@H]2[C@@H](N3CC[C@H](O)C3)CCC[C@@H]21 | nM | 1.8 |
| O=C(Cc1ccc(Cl)c(F)c1)N1CCN(S(=O)(=O)Cc2ccon2)[C@H]2CCC[C@H](N3CC[C@H](O)C3)[C@H]21 | nM | 1.4 |
| COC(=O)N1CCN(C(=O)Cc2ccc(Cl)c(Cl)c2)[C@@H]2[C@@H](N(C)C)CCC[C@@H]21 | nM | 1 |

Continue with the molecule presented below.
Entry under test: `CS(=O)(=O)N1CCN(C(=O)Cc2ccc(Cl)c(Cl)c2)[C@@H]2[C@@H](N3CCCC3)CCC[C@@H]21` . Its EC50 was 1.5
